system: Bcl-2-like protein 10 (Homo sapiens) (UniProt Q9HD36)
Sequence (Q9HD36 whole entry, looked up): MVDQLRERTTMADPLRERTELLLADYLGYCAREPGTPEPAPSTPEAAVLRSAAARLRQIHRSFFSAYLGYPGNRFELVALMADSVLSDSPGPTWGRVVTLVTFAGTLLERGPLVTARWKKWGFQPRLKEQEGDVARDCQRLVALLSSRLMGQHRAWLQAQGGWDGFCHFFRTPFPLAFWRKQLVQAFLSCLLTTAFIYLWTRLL
assay_details: TR3 peptide-Bcl-B binding displacers, biochemical primary FP assay, phenotype converters (AID 1240);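 note: 0% = Bcl-B with tracer peptide and DMSO and 100% = tracer peptide lacking Bcl-B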
condition_label: GST-Bcl-B / FITC-TR3 peptide fluorescence polarization; stronger effect = higher value; compound at 3.75 mg/L
Among all 50,000 compounds or so, about 800 (1.6%) showed an effect of 50% or more. Only a selection was taken, and strong results are over-represented in it overall.
We begin with a simple list: items and their reported displacement.
Enter your answer as a number in %; do not include the unit.

Reference set, count: 3
1) Cc1cc(/C=C2/SC(=O)NC2=O)c(-c2ccccc2)n1-c1ccccc1 = -9.6
2) COc1cccc(OCCCCS)c1 = 10
3) CC1(C)CC(=O)C2=C(C1)Nc1ccccc1NC2c1ccc(-c2ccccc2[N+](=O)[O-])o1 (configuration not stated) = -15.9

What displacement value was documented for this compound, O=C(Cc1ccc(Cl)cc1)Nc1ccc2c(c1)OCCO2 ?
0.4

Fill in: displacement of CC(=O)NC1=NC(=O)/C(=C\c2ccccc2F)S1 is ___
107

Recorded displacement for CC(=O)NC1=NC(=O)/C(=C\c2ccc(Br)o2)S1 , please?
1.4

Name the recorded displacement for CCn1c2ccccc2c2cc(NC(=O)Cc3ccc(OC)c(OC)c3)ccc21 .
-5.2

Find the recorded displacement belonging to CC(=O)NC1=NC(=O)/C(=C\c2ccc(C)o2)S1 and report it.
96
